# Target system: glucocerebrosidase (Gcase) (Homo sapiens, UniProt P04062)
# Sequence (P04062 40-536): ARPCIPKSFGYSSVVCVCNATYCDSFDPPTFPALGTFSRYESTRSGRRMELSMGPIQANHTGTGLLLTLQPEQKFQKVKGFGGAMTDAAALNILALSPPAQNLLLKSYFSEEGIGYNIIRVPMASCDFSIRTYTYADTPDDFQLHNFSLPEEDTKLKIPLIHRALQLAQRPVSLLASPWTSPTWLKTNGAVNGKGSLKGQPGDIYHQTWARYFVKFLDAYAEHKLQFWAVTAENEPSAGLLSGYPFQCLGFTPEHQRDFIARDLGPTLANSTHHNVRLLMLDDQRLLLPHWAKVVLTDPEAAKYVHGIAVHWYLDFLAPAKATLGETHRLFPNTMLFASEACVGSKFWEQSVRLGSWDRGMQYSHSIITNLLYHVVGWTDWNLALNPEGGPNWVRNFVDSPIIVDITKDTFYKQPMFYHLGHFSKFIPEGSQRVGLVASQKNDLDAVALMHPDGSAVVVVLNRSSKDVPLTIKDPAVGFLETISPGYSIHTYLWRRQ
# Assay notes: Glucocerebrosidase (Gcase) activation assay, 4-methylumbelliferyl-beta-D-glucopyranoside substrate, fluorescence
# Assay type: biochemical
# Test context: 0.25 h, pH 4.7, test compound at 0.1 μM, 10 nM GCase, 100 nM saposin C, read-out: Percent Gcase Activation 0.1 μM Test Compound
Measurement label: activation at 0.1 µM

Examples with their reported activation at 0.1 µM follow.
CCC(NC(=O)c1ccn2c(C)cc(C)nc12)c1ccc(OC)cc1 (stereo not drawn) [IV-83]; > 20%
CCn1c(C(C)NC(=O)c2ccn3c(C)cc(C)nc23)nc2c1CCCC2 (stereo not drawn) [IV-106]; < 10%
COc1ccccc1[C@H](C)NC(=O)c1ccn2c(C)cc(C)nc12 [IV-27]; > 20%
Cc1cc(C)n2ccc(C(=O)NC(C)C34CC5CC(C3)C(C5)C4)c2n1 (stereo not drawn) [IV-89]; > 20%
Cc1ccc(C(CO)NC(=O)c2ccn3c(C)cc(C)nc23)c(C)c1 (stereo not drawn) [IV-91]; < 10%

Qu. Quick check: activation at 0.1 µM on glucocerebrosidase (Gcase) (Homo sapiens, UniProt P04062), item Cc1cc(C)n2ccc(C(=O)NC(C)c3ccc(C)c(F)c3)c2n1 (stereo not drawn) [IV-104] ?
Ans. > 20%

Qu. Quick check: activation at 0.1 µM on glucocerebrosidase (Gcase) (Homo sapiens, UniProt P04062), item COc1ccc([C@@H](C)NC(=O)c2ccn3c(C)cc(C)nc23)cc1 [IV-24] ?
Ans. < 10%

---

Reported activation at 0.1 µM by item:
# Target system: glucocerebrosidase (Gcase) (Homo sapiens, UniProt P04062)
# Sequence (P04062 40-536): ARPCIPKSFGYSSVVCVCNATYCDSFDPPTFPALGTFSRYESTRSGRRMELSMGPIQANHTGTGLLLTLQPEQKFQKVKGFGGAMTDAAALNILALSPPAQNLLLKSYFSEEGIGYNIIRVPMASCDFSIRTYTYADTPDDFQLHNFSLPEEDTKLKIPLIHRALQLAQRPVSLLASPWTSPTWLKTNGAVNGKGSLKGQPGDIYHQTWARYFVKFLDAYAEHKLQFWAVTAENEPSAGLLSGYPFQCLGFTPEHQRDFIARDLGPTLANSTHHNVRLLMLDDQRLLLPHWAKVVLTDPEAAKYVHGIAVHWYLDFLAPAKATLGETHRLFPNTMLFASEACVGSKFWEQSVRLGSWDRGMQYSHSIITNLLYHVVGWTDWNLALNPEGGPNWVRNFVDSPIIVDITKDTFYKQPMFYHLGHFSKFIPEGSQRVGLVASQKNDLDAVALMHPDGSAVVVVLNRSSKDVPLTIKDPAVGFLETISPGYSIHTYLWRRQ
# Assay notes: Glucocerebrosidase (Gcase) activation assay, 4-methylumbelliferyl-beta-D-glucopyranoside substrate, fluorescence
# Type: biochemical
# Test context: 0.25 h, pH 4.7, test compound at 0.1 μM, 10 nM GCase, 100 nM saposin C, read-out: Percent Gcase Activation 0.1 μM Test Compound

Examples with their reported activation at 0.1 µM follow.
Cc1cc(C)n2ccc(C(=O)N[C@H](C)c3ccc(Cl)cc3)c2n1; > 20%
Cc1cc(NC2CC3CCC(C2)O3)nc2c(C(=O)NC(C)(C)C3CC3)ccn12 (stereo not drawn); < 10%

Qu. Reported activation at 0.1 µM for Cc1cc(C)n2ccc(C(=O)NC(CC(C)C)c3ccccc3)c2n1 (stereo not drawn) : what is it?
Ans. > 20%

Qu. Reported activation at 0.1 µM for CNc1cc(C)n2ccc(C(=O)NC(C)(C)C3CC3)c2n1 : what is it?
Ans. > 20%

Qu. Reported activation at 0.1 µM for CCOc1ccccc1C(C)NC(=O)c1ccn2c(C)cc(C)nc12 (stereo not drawn) : what is it?
Ans. > 20%

Qu. Reported activation at 0.1 µM for Cc1cc(-c2cccnc2)nc2c(C(=O)N[C@H]3CC[C@H](OCC(C)C)CC3)ccn12 : what is it?
Ans. > 20%
